molecular target: MdNAC18.1 (UniProt A0A498K6T8 1-364); assay: EMSA; Beyotime Chemiluminescent EMSA Kit GS009; buffer, salt, pH and temperature not stated; conditions: protein: recombinant; tags: His (pET32A); chain copies: 2; label: 3' biotin; blunt
Sequence (A0A498K6T8 entry or part of it): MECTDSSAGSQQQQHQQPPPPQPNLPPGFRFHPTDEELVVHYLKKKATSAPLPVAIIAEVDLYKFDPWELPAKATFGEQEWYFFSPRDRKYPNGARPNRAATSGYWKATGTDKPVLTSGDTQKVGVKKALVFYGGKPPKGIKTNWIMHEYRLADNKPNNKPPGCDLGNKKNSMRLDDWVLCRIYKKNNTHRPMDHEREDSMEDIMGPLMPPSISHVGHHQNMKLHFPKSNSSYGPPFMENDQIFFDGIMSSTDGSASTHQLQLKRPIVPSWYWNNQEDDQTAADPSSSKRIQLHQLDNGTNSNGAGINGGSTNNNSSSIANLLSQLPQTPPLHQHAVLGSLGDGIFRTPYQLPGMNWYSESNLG
endpoint: binding result

MdACO1-like promoter probe NACBS1 (dsDNA) DNA 1: TCAAGTACCATAACTACACGTAACTTGCAAAGTTCC DNA 2: GGAACTTTGCAAGTTACGTGTAGTTATGGTACTTGA; binds
MdNAC18.1 P promoter probe (CTAAC) (dsDNA) DNA 1: GACATACAATGTTCTGATTCGTATTCTAACACTTAA DNA 2: TTAAGTGTTAGAATACGAATCAGAACATTGTATGTC; binds
MdACS1 promoter probe NACBS5 (dsDNA) DNA 1: GTACACTTATAATCCCCACGCAAGTTTGTAGGTAAT DNA 2: ATTACCTACAAACTTGCGTGGGGATTATAAGTGTAC; binds
MdNAC72 promoter probe NACBS1 (dsDNA) DNA 1: TATTGACCCACATTTGCACGTAGCCTTGTAAACTTG DNA 2: CAAGTTTACAAGGCTACGTGCAAATGTGGGTCAATA; binds
